List of % Inhibition 13 DAP VELE values.
system: Velvetleaf (VELE); format: in vivo, Abutilon theophrasti; conditions: Antidote 4.48 + Biocide No. 1 8.96 Kg/Ha PPI, Herb. No. 8 0.07 POE; 13 DAP
The number alone won't do; follow it with the unit.

Previously resolved entries follow.
Challenge: // fetch % Inhibition 13 DAP VELE for "N#CCOc1ccc(Cl)c2cccnc12" ; system: Velvetleaf (VELE)
Response given: 95%

Challenge: GET % Inhibition 13 DAP VELE where system = Velvetleaf (VELE) and item = "CCOC(=O)c1cnoc1-c1ccc(Cl)cc1Cl"
Response given: 95%

Challenge: Under Velvetleaf (VELE), report % Inhibition 13 DAP VELE for CC1CN(C(=O)C(Cl)Cl)C(C)(C)O1 (stereo not drawn)
Response given: 85%

Further cases:
Challenge: Name the value of % Inhibition 13 DAP VELE reported for CC1(C)OC(c2ccco2)CN1C(=O)C(Cl)Cl (stereo not drawn) when tested on Velvetleaf (VELE).
Response given: 90%

Challenge: Give measured % Inhibition 13 DAP VELE for "COC(=O)COC(c1ccccc1)c1ccccc1" (Velvetleaf (VELE)).
Response given: 90%

Challenge: Report value only: % Inhibition 13 DAP VELE, Velvetleaf (VELE), "Clc1cc(Cl)nc(-c2ccccc2)n1"
Response given: 85%

Challenge: Lab note: record % Inhibition 13 DAP VELE of "C=CCSC(=S)N(C)c1ccccc1" tested on Velvetleaf (VELE).
Response given: 95%

Challenge: Please tell me the measured % Inhibition 13 DAP VELE for "C=CCN(CC=C)C(=O)C(Cl)Cl" ; system: Velvetleaf (VELE).
Response given: 95%

Challenge: Provide Velvetleaf (VELE) % Inhibition 13 DAP VELE reading for C=CCC(C)(C#N)Sc1ccc(C)cc1 (stereo not drawn) .
Response given: 90%

----------
system: Corn; assay: Greenhouse test Procedure VII: biocide and antidote in furrow, herbicide POE (Examples 39-42, 48-50, 56-58; Tables 38-41, 47-49, 55-57); format: in vivo; conditions: C (COUNTER) + antidote in furrow, C:A Ratio 40; ACCENT 0.56 Kg/Ha POE
Assay Endpoint: % Inhibition Corn (%)
Field: numeric (%). Do not append units.

Below are worked cases with known answers.
Challenge: Query % Inhibition Corn for CC1CN(C(=O)C(Cl)Cl)C(C)(C)O1 (stereo not shown)
Response given: 15

Challenge: Note down % Inhibition Corn recorded for O=C(O)COC(c1ccccc1)c1ccccc1 [compound 78]
Response given: 20

Challenge: Consider the compound O=C(O)COC(c1ccccc1)c1ccccc1 [compound 79] . State its measured % Inhibition Corn.
Response given: 20

Next:
Challenge: Supply % Inhibition Corn value. Item: CC1(C)OC(c2ccco2)CN1C(=O)C(Cl)Cl (stereo not shown)
Response given: 10

----------
system: Corn; conditions: Antidote 4.48 + Biocide No. 1 8.96 Kg/Ha PPI, Herb. No. 8 0.07; 5 DAP, before herbicide application
Assay Endpoint: % Inhibition 5 DAP Corn (%)
Give the value, in units of %, as a plain number.

Here is how some compounds turned out for % Inhibition 5 DAP Corn.
Challenge: For the compound C=CCC(C)(C#N)Sc1ccc(C)cc1 (stereo not drawn) , give its reported % Inhibition 5 DAP Corn.
Response given: 0

Challenge: Output measured % Inhibition 5 DAP Corn for this item: "COC(=O)COC(c1ccccc1)c1ccccc1"
Response given: 20

***
Challenge: Assign % Inhibition 5 DAP Corn to the following record: "Clc1cc(Cl)nc(-c2ccccc2)n1"
Response given: 10

Challenge: Quick one: give measured % Inhibition 5 DAP Corn for "CCOC(=O)c1cnoc1-c1ccc(Cl)cc1Cl"
Response given: 10

Challenge: Give recorded % Inhibition 5 DAP Corn. CC1CN(C(=O)C(Cl)Cl)C(C)(C)O1 (stereo not drawn)
Response given: 20

Challenge: Supply recorded % Inhibition 5 DAP Corn for "C=CCSC(=S)N(C)c1ccccc1" here.
Response given: 0

Challenge: Indicate the recorded % Inhibition 5 DAP Corn value for this compound: "N#CCOc1ccc(Cl)c2cccnc12"
Response given: 25

Challenge: Give the reported value of % Inhibition 5 DAP Corn for this record: CC1(C)OC(c2ccco2)CN1C(=O)C(Cl)Cl (stereo not drawn)
Response given: 10

Challenge: Give % Inhibition 5 DAP Corn for the following compound: "C=CCN(CC=C)C(=O)C(Cl)Cl"
Response given: 10

----------
tested on: Corn; conditions: […]; observed 8 days later (Table 33)
Assay Endpoint: % Inhibition Corn (%)
Kindly answer with a numeric value in %, unit omitted.

Worked set:
Challenge: Look up Corn data: % Inhibition Corn of "O=C(O)COC(c1ccccc1)c1ccccc1" , then report it.
Response given: 55

Challenge: Tell me % Inhibition Corn of "O=C(COC(c1ccccc1)c1ccccc1)OCc1ccoc1" when tested on Corn.
Response given: 50

Challenge: # lookup: Corn % Inhibition Corn, key = "CNC(=O)COC(c1ccccc1)c1ccccc1"
Response given: 60

Challenge: # return % Inhibition Corn for "CCSC(=O)COC(c1ccccc1)c1ccccc1" , test system: Corn
Response given: 30

Challenge: GET % Inhibition Corn where system = Corn and item = O=C(COC(c1ccccc1)c1cccc(C(F)(F)F)c1)OCC(F)(F)F (stereo not shown)
Response given: 50

Continuing:
Challenge: # return % Inhibition Corn of "CCOC(=O)CNC(c1ccc(Cl)cc1)c1ccc(Cl)cc1" (system: Corn)
Response given: 60

Challenge: Jot down % Inhibition Corn (Corn) of "CCOC(=O)COC(c1c(C)cccc1C)c1c(C)cccc1C" .
Response given: 45

Challenge: Give % Inhibition Corn only, for "Cc1cccc(C)c1C(OCC(=O)O)c1c(C)cccc1C" , using Corn data.
Response given: 60

Challenge: // output % Inhibition Corn; input O=C(O)COC(c1ccccc1)c1cccc(C(F)(F)F)c1 (stereo not shown) ; system Corn
Response given: 70

Challenge: # return % Inhibition Corn of "CCCOC(=O)COC(c1ccccc1)c1ccccc1" (system: Corn)
Response given: 50

----------
% Inhibition Corn reference
test system: Corn; conditions: […]; observed 8 days later (Table 33)
Express your answer in %, writing the number without its unit.

Examples with their reported % Inhibition Corn follow.
Challenge: For the compound "C#CCOC(=O)COC(c1ccccc1)c1ccccc1" , report % Inhibition Corn.
Response given: 55

Challenge: Fill in reported % Inhibition Corn for this entry: "N#CCCOC(=O)COC(c1ccccc1)c1ccccc1"
Response given: 45

Challenge: Provide measured % Inhibition Corn value, entry: "CC(C)(C)OC(=O)COC1c2ccccc2CCc2ccccc21"
Response given: 65

Continuing:
Challenge: Report % Inhibition Corn, nothing else, for this compound: "COC(=O)COC(c1ccccc1)c1ccccc1"
Response given: 40

Challenge: Dear colleague, please send me the reported % Inhibition Corn for "O=C(COC(c1ccccc1)c1ccccc1)OCC(F)(F)F" when you can.
Response given: 45

Challenge: Report measured % Inhibition Corn; entry is "O=C(COC(c1ccccc1)c1ccccc1)Oc1ccccc1"
Response given: 45

Challenge: Please look at this compound and report its % Inhibition Corn: "CCOC(=O)CNC(c1ccc(OC)cc1)c1ccc(OC)cc1"
Response given: 65

Challenge: Output measured % Inhibition Corn for this item: "O=C(COC(c1ccccc1)c1ccccc1)Oc1cccc([N+](=O)[O-])c1"
Response given: 65

Challenge: Using known records, supply % Inhibition Corn for "NC(=S)COC(c1ccccc1)c1ccccc1"
Response given: 55

Challenge: Let me know recorded % Inhibition Corn for "O=C(C(Cl)Cl)N1CCCC12CCCC2" , thanks.
Response given: 55

----------
system: Shattercane (SHCA); format: in vivo; conditions: […]; observed 9 days later (Table 30)
Assay Endpoint: % Inhibition SHCA (%)
Express the result in % but write the number alone.

Challenge: Specify reported % Inhibition SHCA for the molecule shown: C[n+]1cccc(C2CN(C(=O)C(Cl)Cl)C(C)(C)O2)c1 (centres unmarked)
Response given: 35

Next:
Challenge: // Input: Cn1cccc1C1CN(C(=O)C(Cl)Cl)C(C)(C)O1 (centres unmarked) . Output its % Inhibition SHCA only.
Response given: 30

Challenge: Give the reported value of % Inhibition SHCA for this record: CC1(C)OC(Cc2ccccc2)CN1C(=O)C(Cl)Cl (centres unmarked)
Response given: 25

Challenge: Identify measured % Inhibition SHCA associated with O=C(C(Cl)Cl)N1CC(c2ccco2)OC1c1ccccc1 (centres unmarked)
Response given: 35

Challenge: Output % Inhibition SHCA of "O=C(C(Cl)Cl)N1CCN(C(=O)C(Cl)Cl)CC1"
Response given: 40

Challenge: Recall and state the measured % Inhibition SHCA for CC1(C)OC(c2cccnc2)CN1C(=O)C(Cl)Cl (centres unmarked) .
Response given: 30

Challenge: Please give measured % Inhibition SHCA of the following entry: CC(C)CC1c2ccccc2CCN1C(=O)C(Cl)Cl (centres unmarked)
Response given: 30

Challenge: Report measured % Inhibition SHCA; entry is CC1Cc2ccccc2C(C)N1C(=O)C(Cl)Cl (centres unmarked)
Response given: 35

The measured values listed here are drawn from patent EP0565593B1.
